These entries and their values trace back to a melting point compilation (Tetko et al.; mined from patent text by program, amines drawn as free bases though some values may be those of a salt).

Consider the following compounds and their measured melting point readings.

Look over these answered cases.
O=S1(=O)NC(Cl)=Nc2ccc(Cl)cc21 ... 242 to 244 °C
C=CCNc1cc2c(c3ccccc13)C(CCl)CN2C(=O)c1cc2cc(OC)c(OC)c(OC)c2[nH]1 (stereo not given) ... 107 to 112 °C
CN1CCN(C(=O)c2ccc(Nc3cc(NC(=O)Nc4c(Cl)cc(Cl)cc4Cl)ncn3)cc2)CC1 ... 165 to 175 °C
CC1=CC(=C=C2C(C#N)C(=C(C#N)C#N)OC2(C)C)C=C(C)N1c1ccccc1 (stereo not given) ... 290 °C
CC(=O)OC1CSC(Oc2cc(-c3cccnc3)cnc2F)C(OC(C)=O)C1OC(C)=O (stereo not given) ... 67 to 68 °C
Cn1cc(C(=O)F)c(C(F)F)c1 ... 53 to 54 °C
CCOC(=O)c1cn(CC)c2sc(C=O)cc2c1=O ... 205 °C
CC1(c2ccc(N)cc2F)CNC1=O (stereo not given) ... 125 to 127 °C
CC(C(=O)Cl)c1ccc2c(c1)CCc1ccccc1C2=O (stereo not given) ... 142 °C
COc1cc(OCc2ccccn2)ccc1/C=C/c1cc(/C=C/c2cccc3[nH]ccc23)n[nH]1 ... 108 to 113 °C

Okay, next one:
-- ask Tell me the measured melting point of CCN(c1ccc(C)c2cc(-c3ncc(CCl)s3)[nH]c12)S(=O)(=O)c1cccs1 , please.
-- reply 177 to 178 °C
